- EXPERIMENT_SUMMARY: NCI Yeast Anticancer Drug Screen. Data for the rad14 strain (AID 159);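 also: 0% = growth of vehicle-treated control cultures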
- DETAILS: S. cerevisiae rad14 strain growth inhibition; at 100.0 µM; active compounds read high
About 79,000 compounds went through this panel and 15% of them were active in at least one assay; those are over-represented in the sample as a whole. Activity calls are given as the source filed them. Rule as the data show it: active = growth inhibition above about 70%; inactive = the rest.
growth inhibition: recorded values

Example results:
O=[N+]([O-])c1ccc(/C=C\c2ccc3c(c2)OCO3)c([N+](=O)[O-])c1    80% (active)
CCCCCCCCCC(=O)N(CCC)CCC    97% (active)
O=C1/C(=C/c2ccc(Cl)c(Cl)c2)CNC/C1=C\c1ccc(Cl)c(Cl)c1    92% (active)
O=[N+]([O-])c1cn[n+]([O-])c2ccccc12    99% (active)
NCCCSc1ccccc1    -1% (inactive)
[N-]=[N+]=NC1(c2ccccc2)C(=O)Nc2ccccc2C1=O (centres undefined)    21% (inactive)

Here is another molecule to look at.
Could you share which growth inhibition value was measured for COc1ccc(C2CC(C)(N3CCCC3)Oc3cc4c(cc32)OCO4)cc1 (centres undefined) ? 67% (inactive)

---

growth inhibition: recorded values
- EXPERIMENT_SUMMARY: NCI Yeast Anticancer Drug Screen. Data for the cln2 rad14 strain (AID 165);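 also: 0% = growth equal to vehicle treated cultures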
- DETAILS: S. cerevisiae cln2 rad14 strain, at 50.0 µM, active compounds read high
Compounds without any hit were thinned out: in the full panel of roughly 79,000, 15% have a hit.
Could you give me the number in %? Just the number is fine.

Example results:
CCCCCCCCCC(=O)N(CCC)CCC    91.1
Cn1c(-c2ccc(/C=N\N3CCN(/N=C/c4ccc(-c5c[n+]6ccsc6n5C)cc4)CC3)cc2)c[n+]2ccsc12    70.5
CCCCCCCCN1COCC(COc2ccccc2C)OC1 (stereo unspecified)    55.2
S=C(NCc1ccccn1)N/N=C/c1ccccn1    89.7
C[n+]1c(/C=C/c2ccc(/C=N/NC(=O)c3ccc(C(=O)N/N=C/c4ccc(/C=C/c5cn6ccccc6[n+]5C)cc4)cc3)cc2)cn2ccccc21    85.7

Here is another molecule to look at.
Could you share which growth inhibition value was measured for O=C(c1cc(=O)c2ccc(O)cc2o1)c1ccc(Cl)cc1Cl ? 78.2

---

- EXPERIMENT_SUMMARY: NCI Yeast Anticancer Drug Screen. Data for the rad50 strain (AID 155);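 also: 0% = growth of vehicle-only cultures of the same strain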
- DETAILS: S. cerevisiae rad50 strain growth inhibition; at 100.0 µM; active compounds read high
This is part of a sample that, as a whole, favours compounds with a hit. Of some 79,000 tested, about 15% had one in any assay.
Entry flag: class 1 if growth inhibition reaches 90%; class 0 if it does not.

Past entries and their recorded results:
CCC[CH2][Sn]([CH2]CCC)([CH2]CCC)/[C](=C/[Si](C)(C)c1ccccc1)c1ccc2c(c1)OCO2    class 0
COc1cc([N+](=O)[O-])c2ncccc2c1Br    class 0
Cc1ccccc1NC(=O)c1c(C)oc2c1C(=O)c1ccccc1C2=O    class 0
CC(=O)NC(c1nc2cc(C)c(C)cc2[nH]1)c1nc2cc(C)c(C)cc2[nH]1    class 0

For this compound, is measured growth inhibition 90% or higher? O=C1C(=O)N(c2ccccc2)[C@@]2(c3ccccc3)C(=Nc3ccccc3)OC(c3ccccc3)=C12 class 0

What do we get for N#[N+]c1c([O-])c2ccccc2c2ccccc12 ? class 1

What do we get for CCN(CC)C(=S)SC(=S)N(CC)CC ? class 1

What do we get for Cc1ccc(NC(=O)CCC(=O)C(C)C(=O)c2ccccc2)c(C)c1 (centres undefined) ? class 0

What do we get for CCCCCc1c(CCCC)c(=O)[nH]c2cc(CNCC(OC)OC)ccc12 ? class 1

What do we get for O=S(=O)(c1cccc(C(F)(F)F)c1)N1c2ccccc2-n2cccc2C1c1cccnc1 (centres undefined) ? class 0

What do we get for NNc1ccccc1-c1nc2ccccc2[nH]1 ? class 0

These entries and their values trace back to PubChem BioAssay (NCI).
